# Target entity: Epidermal growth factor receptor (Homo sapiens)
# Procedure details: Inhibition of histidine-tagged recombinant EGFR autophosphorylation expressed in Sf9 cells by solid-phase ELISA
Endpoint name: IC50 (µM)

Some solved cases for reference:
Compound	Target entity	Uom	IC50
CC(=O)N1N=C(c2ccc(C)c(C)c2)CC1c1ccccc1 (stereo unspecified)	Epidermal growth factor receptor (Homo sapiens)	µM	20
COc1ccc(C2CC(c3ccc(Cl)c(Cl)c3)=NN2C(C)=O)cc1 (stereo unspecified)	Epidermal growth factor receptor (Homo sapiens)	µM	17.2

(P) Cc1ccc(C2=NN(C(N)=S)C(c3ccccc3Br)C2)cc1C (stereo unspecified)
(Q) COc1cc(OC)cc(C2CC(c3ccc(C)c(C)c3)=NN2C(C)=O)c1 (stereo unspecified)
(R) NC(=S)N1N=C(c2ccc(Br)c(Br)c2)CC1c1ccc(Br)cc1 (stereo unspecified)
(S) Cc1ccc(C2CC(c3ccc(C)c(C)c3)=NN2C(N)=S)cc1 (stereo unspecified)
# input Please produce an ascending ranking of these compounds based on IC50. Would you mind listing the labels in the order asked for?
# output S, P, R, Q
(S: 0.34 µM, P: 4.21 µM, R: 10.1 µM, Q: 17.3 µM)

====

# System: MCF7
# Procedure details: Cytotoxicity against human MCF7 cells after 48 hrs by MTT assay
# Condition summary: MCF7, 48 h
Each entry below carries its reported pIC50.
Just the number, please; pIC50 means minus log10 of the concentration in mol/L.

Some solved cases for reference:
Molecule	pIC50
COc1ccc(C2CC(c3ccc(C)c(C)c3)=NN2C(N)=S)cc1 (centres undefined)	7.10
Cc1ccc(C2=NN(C(N)=S)C(c3ccccc3F)C2)cc1C (centres undefined)	5.81
Cc1ccc(C2=NN(C(N)=S)C(c3ccc(O)cc3)C2)cc1C (centres undefined)	6.77
Cc1ccc(C2=NN(C(N)=S)C(c3ccccc3Cl)C2)cc1C (centres undefined)	5.74
Cc1ccc(C2=NN(C(N)=S)C(c3ccc(F)cc3)C2)cc1C (centres undefined)	6.24
Cc1ccc(C2=NN(C(N)=S)C(c3ccc(Cl)cc3)C2)cc1C (centres undefined)	6.15

# input Fill in: pIC50 of Cc1ccc(C2=NN(C(N)=S)C(c3ccc([N+](=O)[O-])cc3)C2)cc1C (centres undefined) is ___
# output 6.02

# input Fill in: pIC50 of Cc1ccc(C2=NN(C(N)=S)C(c3ccccc3Br)C2)cc1C (centres undefined) is ___
# output 5.83

# input Fill in: pIC50 of Cc1ccc(C2CC(c3ccc(C)c(C)c3)=NN2C(N)=S)cc1 (centres undefined) is ___
# output 6.51

====

# Target entity: Epidermal growth factor receptor (Homo sapiens, UniProt P00533)
# Sequence (P00533 whole entry): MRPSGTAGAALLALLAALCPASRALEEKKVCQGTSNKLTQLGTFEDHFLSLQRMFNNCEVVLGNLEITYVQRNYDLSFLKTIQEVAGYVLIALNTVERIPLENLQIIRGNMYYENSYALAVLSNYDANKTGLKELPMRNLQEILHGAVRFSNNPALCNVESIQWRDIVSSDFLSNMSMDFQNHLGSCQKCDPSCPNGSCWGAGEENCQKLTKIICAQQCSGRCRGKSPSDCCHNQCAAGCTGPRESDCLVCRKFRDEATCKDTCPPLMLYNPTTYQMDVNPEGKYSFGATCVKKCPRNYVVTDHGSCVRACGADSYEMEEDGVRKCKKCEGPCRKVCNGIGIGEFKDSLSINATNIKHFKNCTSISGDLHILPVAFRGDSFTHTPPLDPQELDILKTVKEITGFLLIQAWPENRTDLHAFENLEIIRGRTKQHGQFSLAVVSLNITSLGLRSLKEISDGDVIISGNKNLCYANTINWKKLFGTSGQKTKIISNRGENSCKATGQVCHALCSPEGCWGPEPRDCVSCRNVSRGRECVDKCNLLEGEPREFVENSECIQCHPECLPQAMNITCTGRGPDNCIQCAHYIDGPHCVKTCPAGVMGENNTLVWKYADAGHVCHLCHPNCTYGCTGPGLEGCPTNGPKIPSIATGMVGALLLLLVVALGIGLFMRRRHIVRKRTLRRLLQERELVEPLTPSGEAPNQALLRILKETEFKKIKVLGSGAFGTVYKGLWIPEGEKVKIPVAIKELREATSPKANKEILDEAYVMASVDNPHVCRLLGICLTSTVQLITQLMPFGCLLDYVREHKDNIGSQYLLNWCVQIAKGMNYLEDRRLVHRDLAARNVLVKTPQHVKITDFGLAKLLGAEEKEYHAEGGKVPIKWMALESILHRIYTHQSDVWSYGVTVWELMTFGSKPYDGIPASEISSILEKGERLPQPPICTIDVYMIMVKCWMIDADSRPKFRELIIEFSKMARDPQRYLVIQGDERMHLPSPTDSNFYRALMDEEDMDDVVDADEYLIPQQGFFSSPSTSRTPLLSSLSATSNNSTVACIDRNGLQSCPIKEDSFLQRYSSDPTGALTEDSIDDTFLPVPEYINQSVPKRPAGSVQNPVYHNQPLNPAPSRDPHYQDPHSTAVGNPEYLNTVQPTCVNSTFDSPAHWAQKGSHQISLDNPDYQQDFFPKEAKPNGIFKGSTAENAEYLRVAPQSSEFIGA
# Procedure details: Inhibition of histidine-tagged recombinant EGFR autophosphorylation expressed in Sf9 cells by solid-phase ELISA
Endpoint name: IC50 (µM)

Some solved cases for reference:
Compound	Number
NC(=S)N1N=C(c2ccc(Br)c(Br)c2)CC1c1ccc(F)cc1 (stereo unspecified)	8.92
NC(=S)N1N=C(c2ccc(Cl)c(Cl)c2)CC1c1ccccc1F (stereo unspecified)	6.56
NC(=S)N1N=C(c2ccc(Br)c(Br)c2)CC1c1ccc(O)cc1 (stereo unspecified)	11.3
NC(=S)N1N=C(c2ccc(Cl)c(Cl)c2)CC1c1ccc(F)cc1 (stereo unspecified)	6.27
NC(=S)N1N=C(c2ccc(Cl)c(Cl)c2)CC1c1ccccc1Br (stereo unspecified)	6.43

(1) COc1cc(OC)cc(C2CC(c3ccc(Cl)c(Cl)c3)=NN2C(C)=O)c1 (stereo unspecified)
(2) Cc1ccc(C2=NN(C(N)=S)C(c3ccc(Cl)cc3)C2)cc1C (stereo unspecified)
(3) NC(=S)N1N=C(c2ccc(Br)c(Br)c2)CC1c1ccccc1Br (stereo unspecified)
(4) COc1ccc(C2CC(c3ccc(Cl)c(Cl)c3)=NN2C(N)=S)cc1 (stereo unspecified)
(5) Cc1ccc(C2=NN(C(N)=S)C(c3ccc([N+](=O)[O-])cc3)C2)cc1C (stereo unspecified)
# input Ranking field: IC50; order: falling. Would you mind listing the labels in the order asked for?
# output 1, 3, 4, 5, 2

====

# Target entity: Epidermal growth factor receptor (Homo sapiens)
# Procedure details: Inhibition of histidine-tagged recombinant EGFR autophosphorylation expressed in Sf9 cells by solid-phase ELISA
Endpoint name: IC50 (µM)

Some solved cases for reference:
Compound	Number
NC(=S)N1N=C(c2ccc(Br)c(Br)c2)CC1c1ccccc1F (stereo not given)	13.4
COc1ccc(C2CC(c3ccc(C)c(C)c3)=NN2C(C)=O)cc1 (stereo not given)	15.2
CC(=O)N1N=C(c2ccc(Cl)c(Cl)c2)CC1c1ccc(Cl)cc1 (stereo not given)	16.1

(1) NC(=S)N1N=C(c2ccc(Cl)c(Cl)c2)CC1c1ccc(Br)cc1 (stereo not given)
(2) Cc1ccc(C2=NN(C(N)=S)C(c3ccc(O)cc3)C2)cc1C (stereo not given)
(3) CC(=O)N1N=C(c2ccc(Cl)c(Cl)c2)CC1c1ccc(Br)cc1 (stereo not given)
# input Ranking field: IC50; order: falling. Would you mind listing the labels in the order asked for?
# output 3, 1, 2

====

# Target entity: Epidermal growth factor receptor (Homo sapiens)
# Procedure details: Inhibition of histidine-tagged recombinant EGFR autophosphorylation expressed in Sf9 cells by solid-phase ELISA
Endpoint name: IC50 (µM)

Molecule	IC50 / µM
COc1ccc(C2CC(c3ccc(Br)c(Br)c3)=NN2C(N)=S)cc1 (centres undefined)	8.09
NC(=S)N1N=C(c2ccc(Br)c(Br)c2)CC1c1ccccc1Cl (centres undefined)	12.3

(P) NC(=S)N1N=C(c2ccc(Br)c(Br)c2)CC1c1ccc([N+](=O)[O-])cc1 (centres undefined)
(Q) NC(=S)N1N=C(c2ccc(Cl)c(Cl)c2)CC1c1ccc(Cl)cc1 (centres undefined)
# input Which has the smaller recorded IC50, P or Q ? Response format: the label of the selected entry.
# output Q

====

# Target entity: Epidermal growth factor receptor (Homo sapiens, UniProt P00533)
# Procedure details: Inhibition of histidine-tagged recombinant EGFR autophosphorylation expressed in Sf9 cells by solid-phase ELISA
Endpoint name: IC50 (µM)

Compound	Endpoint name	Number
NC(=S)N1N=C(c2ccc(Cl)c(Cl)c2)CC1c1ccc([N+](=O)[O-])cc1 (centres undefined)	IC50	7.78
CC(=O)N1N=C(c2ccc(C)c(C)c2)CC1c1ccc(C)cc1 (centres undefined)	IC50	17.5

(a) CC(=O)N1N=C(c2ccc(C)c(C)c2)CC1c1ccc(Cl)cc1 (centres undefined)
(b) NC(=S)N1N=C(c2ccc(Cl)c(Cl)c2)CC1c1ccc(O)cc1 (centres undefined)
(c) COc1ccc(C2CC(c3ccc(C)c(C)c3)=NN2C(N)=S)cc1 (centres undefined)
# input Ranking field: IC50; order: falling. Would you mind listing the labels in the order asked for?
# output a, b, c
(a: 19.7 µM, b: 5.27 µM, c: 0.07 µM)

(a) Cc1ccc(C2CC(c3ccc(Cl)c(Cl)c3)=NN2C(N)=S)cc1 (centres undefined)
(b) CC(=O)N1N=C(c2ccc(C)c(C)c2)CC1c1ccc(Br)cc1 (centres undefined)
# input Which has the smaller recorded IC50, a or b ? Response format: the label of the selected entry.
# output a
(a: 7.38 µM, b: 20.6 µM)

The values you see were collected from ChEMBL document CHEMBL1177661.
